Ki for 5-hydroxytryptamine receptor 1A (Homo sapiens, UniProt P08908) - collated from the literature.
Categories are assigned from the measured Ki using these intervals: bin A: < 10 nM; bin B: ≥ 10 nM and < 100 nM; bin C: ≥ 100 nM

{"Molecule": "Cc1sc2ncn(CCCCCN3CCN(c4ccccc4)CC3)c(=O)c2c1C", "Category Label": "bin B"}
{"Molecule": "COc1ccccc1N1CCN(CC(O)CN2C(=O)NC(C)(c3ccc(C)cc3)C2=O)CC1 (racemic)", "Category Label": "bin C"}

Asked: // bin(item) where item = O=C(CCNCc1ccccc1)N1CCN(c2ccccc2)CC1
Given back: bin C

Asked: // bin(item) where item = COc1ccc(COc2ccccc2OCCNCCOc2c(OC)cccc2OC)cc1
Given back: bin B

Asked: // bin(item) where item = CC(=O)c1c(C)cc2oc(=O)cc(C)c2c1OCCCN1CCN(c2cccc(Cl)c2Cl)CC1
Given back: bin A

Asked: // bin(item) where item = CN(CCOc1ccccc1Cl)CCN1C(=O)CC2(CCCC2)CC1=O
Given back: bin C

Asked: // bin(item) where item = Cc1ccc2c(OCCN3CCC(Cc4cccc(N5C[C@@H](C)O[C@@H](C)C5)c4)CC3)cccc2n1
Given back: bin A

Asked: // bin(item) where item = CC(C)c1ccccc1OCCN1CCC(CNS(=O)(=O)c2ccc(F)cc2)CC1
Given back: bin C

Asked: // bin(item) where item = COc1ccccc1N1CCN(CCCN2C(=O)c3ccc(N(C)C)cc3C2=O)CC1
Given back: bin A

Asked: // bin(item) where item = CCOC(=O)c1cccc(NC2=NC(N(C)C)=NC3(CCCCC3)N2)c1
Given back: bin C

Asked: // bin(item) where item = CCOc1ccccc1N1CCN(CCC(=O)N2CCN(c3cccc(Cl)c3)CC2)CC1
Given back: bin B

Asked: // bin(item) where item = COc1ccc(NC(=O)N2CCN(c3c(C)cccc3C)CC2)cc1N1CCN(C)CC1
Given back: bin C

Asked: // bin(item) where item = O=C1CC2(CCCC2)CC(=O)N1CCN1CCN(c2ccccc2[N+](=O)[O-])CC1
Given back: bin B

Asked: // bin(item) where item = COc1ccccc1N1CCN(CCCCCNc2ccc3ccccc3n2)CC1
Given back: bin A

Asked: // bin(item) where item = CCN(CCCc1c[nH]c2ccc(F)cc12)[C@H]1COc2c(F)ccc(C(N)=O)c2C1
Given back: bin B

Asked: // bin(item) where item = O=C(CCN1CCN(c2cccc3ccccc23)CC1)c1ccsc1
Given back: bin B

Asked: // bin(item) where item = NC(=O)[C@@H]1Cc2ccccc2CN1C(=O)CCCCCN1CCN(c2cccc(Cl)c2)CC1
Given back: bin C

Asked: // bin(item) where item = CCC(=O)Nc1ccc2[nH]cc(C3CCN(C)CC3)c2n1
Given back: bin C

Asked: // bin(item) where item = CN1c2ccccc2C(=O)N2CCc3c([nH]c4ccccc34)[C@H]21
Given back: bin C

Asked: // bin(item) where item = Fc1ccc(COc2ccc(Cl)cc2C2CCNCC2)cc1
Given back: bin C

Asked: // bin(item) where item = COc1ccccc1N1CCN(CCCNS(=O)(=O)c2ccc3ccccc3c2)CC1
Given back: bin A
